- Test: label from the status in PepcDB records
Value Kind: protein production

Below, each entry is followed by its recorded protein production result.
Quote protein production reported for MLVSIILVNYNGADILPDCLNSIDKFISKDNCEILLVDNASQDNSYELVAQDFPDVKIVRLPKNYGFGAGNNAGAKIAKGKFLLLLNTDTILTTNILPHLIDLMRENPDVGIIGTKLVFPDETFQISFAYTIGIKGEYKSRKLHEYAEDKSKLNSLEQEFNTIKEVDIVVGAALFIRADLFHSVGGFDEKFFIYFEDADLCRRVQNQGYKILYTPQVSLIHIRGHSMKKNLEHHHHHH please.
failed

Please report protein production for the following sequence: MVESKTKFEEIRKWVSDHKLRTVGCLWLSGITGSIAYNWSQPAMKTSVKIIHARLHAQALTLAALAGAAVVEYYDHKTEATNRYPKFLPPENLSHKD
failed

Fill in reported protein production for this entry: MEKYSQVIFDKNTVEFVTVAAEFCGFLERARDMKRYDFVDTALKILPLLYLKATLLPPCEPIGEDEPETFVTEEDYELIRRAIAGVLGAKDDYLEVFLPDMVYSDTPIKKCISEDLADIYQDLKDFISVFQLGLNETMNDSLVVCKEHFREFWGQRLVNTMRALHDVKYSPLEHHHHHH
not failed

Given the sequence MFNIADGGFTELHTLWLNEEKAAVPGREYEIWHRRHDYWLLAGIVTHGYGRWQDIQNDIRFAIINEPFKMDVGKGNFLEIKNKFLARRFKLLEQALVIEEQLRRAAYLNLAQDPSHPAMSLNARFAEVECLAESHQHLSKESLAGNKPANAVLHKVLNQLEELLSDMKSDVSRLPATLARIPPVAQRLQMSERSILSRLA , write its reported protein production.
failed

Item MALVDDGSQPLVSVIIASYNHEKYIEASIASVAAQTYRNVELLVVDDGSSDGSVELLRGLQAKYGFDLRVQQNQGLSRTLNEAITRARGNLIVPFGSDDIMLPQRLEKQVAHMWDKPEVGICAGNIEIIDSNGRVMPGKEQRKRDLPFRRLDFDDLFLDRKPGPMAPTLMFRREALEKVGGFDPDIRLEDVYIELAVTKAGYVIDILGEVLAQYRKHPTNTYKNARFMVDNVFKTYSQFSDHPDYEQVIMRFRNSMFLKCSNRDKVLARELLSGLPLKYWNEKTFRGIARLFFS : provide protein production
failed

Specify protein production for MKWLLVASAALYLFGSFRRPLFALGLGAGLAYLALRGISLGRLPLVGPHDTIAFFSASIGLMTLPFLFSPSLRNSSAFPWATGGTAAVFALFSLAFPALAMPLPPILNTLWFELHVALAFFAYALFTIGAIMGVLFLAGGERRLLDLQYRAALVGYTFFSGSMVAGGIWGYYAWGTYWLWTPKELWTSILWIFYTFWLHLRLRGAGGDRLLAWTGILGFGVMLFTYLGVSMLMKSSHSF and stop.
failed

---
Note protein production for the sequence shown: MMISDLPEDMVEEILSRVSIISLGALRWNDLSKARVICKAEARQQFAGFMIKGSKEVSNTRLVVWNPYLGKIWSIQHRSAYHSENRYTLGYDNNRKPQNLEEQLAVLLHNWGAFAMEIWVTTNIEPNAKKHAVIFDSSLSCGSVACIIGETGNLRTVDLGVAAVPYRQLPVCSYAPSLEQINQGQELPLIGLTQIFMEQHKYWVSTFLDNLITKYG
failed

# return recorded protein production for input MKALTVNKTIFILVIAASLLLGAAVGYIAHSLTAGGGGVVVTGSKAVSTGTSIGVYLTIKNNTNTTSCIVGADIAESVSGKVVVDIHKTVEEGGRVVMMPAGPICLGPGETLEMRQGPGSYHVMIMGDRSAIEKITEDGVVEIKVLVEQQVDAPITGP
failed

Give the reported value of protein production for this record: MSDIISIKDIDLAKKKVFIRCDFNVPQDDFLNITDDRRIRSAIPTIRYCLDNGCSVILASHLGRPKEISSKYSLEPVAKRLARLLDKEIVMAKDVIGEDAKTKAMNLKAGEILLLENLRFEKGETKNDENLAKELASMVQVYINDAFGVCHRAHSSVEAITKFFDEKHKGAGFLLQKEIDFASNLIKHPARPFVAVVGGSKVSGKLQALTNLLPKVDKLIIGGGMAFTFLKALGYDIGNSLLEEELLEEANKILTKGKNLGVKIYLPVDVVAAPACSQDVPMKFVPAQEIPNGWMGLDIGPASVRLFKEVISDAQTIWWNGPMGVFEIDKFSKGSIKMSHYISEGHATSVVGGGDTADVVARAGDADEMTFISTGGGASLELIEGKELPGVKALRSKENE
not failed

Consider the sequence MATAPRPLREQYLHFQPISTRWHDNDIYGHVNNVTYYAFFDTAVNTYLIERGGLDIQGGEVIGLVVSSSCDYFAPVAFPQRIEMGLRVARLGNSSVQYELALFLEGQREACAAGRFVHVFVERRSSRPVAIPQELRDALAALQSSAQ . State its measured protein production.
not failed

Tell me measured protein production for MAENGESSGPPRPSRGPAAAQGSAAAPAEPKIIKVTVKTPKEKEEFAVPENSSVQQFKEAISKRFKSQTDQLVLIFAGKILKDQDTLIQHGIHDGLTVHLVIKSQNRPQGQSTQPSNAAGT please.
failed

In one line, give reported protein production of the entry VSRDENSWLIDGATPLEEVTRVLDIAYFPDEENYETISGFMMYMLRKIPKKTDSVVYGKYKFEVIDTENFKIDQILVSLVKEQE .
not failed

Look up and state reported protein production for IQLIVNGQSQLVPSPDSGTDSGTTNDARLNIRQLLEHMGLQGKRIAVERNGEIVPRSQFDQPMLASGDKLEIVVAVGGG
failed

Please give the documented protein production of YYLIVSQLLGDTASVKLLVPPGANPHLFSLKPSDAKTLEEADLIVANGLGLEPYLEKYREKTVFVSDFIPALLLIDDNPHIWLDPFFLKYYIVPGLYQVLIEKFPEKQSEIKQKAEEIVSGLDTVIRDSFKALLPYTGKTVVMAHPSFTYFFKEFGLELITLSSGHEHSTSFSTIKEILRKKEQIVALFREPQQPAEILSSLEKELRMKSFVLDPLGVNGEKTIVELLRKNLSVIQEALK
not failed
